Cited source for all entries: ChEMBL document CHEMBL2021883

- test_description: Selectivity index, ratio of IC50 for african green monkey Vero cells to IC50 for chloroquine-sensitive Plasmodium falciparum D6
- Assay type: toxicity, cell-based
- measurement_context: Vero cells versus Plasmodium falciparum D6, read-out: Ratio IC50
attribute_measured: selectivity ratio

COc1cc(NC(C)CCCNC(=O)[C@H](CCCCN)NC(=O)[C@@H](N)CCCCN)c2nc(C(C)(C)C)ccc2c1 (stereo partly specified)
> 37.7
COc1cc(NC(C)CCCNC(=O)C[C@H](NC(=O)[C@@H](N)CCCNC(=N)N)C(=O)O)c2ncccc2c1 (stereo partly specified)
> 7.9
COc1cc(NC(C)CCCNC(=O)C[C@@H](NC(=O)[C@H](N)CCCNC(=N)N)C(=O)O)c2ncccc2c1 (stereo partly specified)
> 7.4
COc1cc(NC(C)CCCNC(=O)[C@@H](CCCCN)NC(=O)[C@H](N)CCCCN)c2nc(C(C)(C)C)ccc2c1 (stereo partly specified)
> 5
COc1cc(NC(C)CCCNC(=O)C[C@@H](NC(=O)[C@H](N)CCCN)C(=O)O)c2nc(C(C)(C)C)ccc2c1 (stereo partly specified)
> 9.5
COc1cc(NC(C)CCCNC(=O)C[C@H](NC(=O)[C@@H](N)CCCCN)C(=O)O)c2ncccc2c1 (stereo partly specified)
> 183
COc1cc(NC(C)CCCNC(=O)[C@H](CCCN)NC(=O)[C@@H](N)CCCN)c2nc(C(C)(C)C)ccc2c1 (stereo partly specified)
> 9.5
COc1cc(NC(C)CCCNC(=O)[C@@H](CCCNC(=N)N)NC(=O)[C@H](N)CCCNC(=N)N)c2ncccc2c1 (stereo partly specified)
> 18.3
COc1cc(NC(C)CCCNC(=O)[C@H](CCCNC(=N)N)NC(=O)[C@@H](N)CCCNC(=N)N)c2nc(C(C)(C)C)ccc2c1 (stereo partly specified)
> 24.5
COc1cc(NC(C)CCCNC(=O)[C@H](CCCCN)NC(=O)[C@@H](N)CCCCN)c2ncccc2c1 (stereo partly specified)
> 11.9
COc1cc(NC(C)CCCNC(=O)C[C@H](NC(=O)[C@@H](N)CCCNC(=N)N)C(=O)O)c2nc(C(C)(C)C)ccc2c1 (stereo partly specified)
> 7.2
